Just for reference, patent US5563155A is where these values come from.

System: Esch. coli Vogel
measurement-notes: median protective dose in mice given lethal systemic infections, Esch. coli Vogel
Type: in vivo
experimental-setup: Escherichia coli, SC, single dose at time of challenge, read-out: median protective dose (PD50)
Where a name gives a salt, the structure may show the parent alone.

| molecule | assay-target | ED50 / mg/kg |
| --- | --- | --- |
| C[C@@H]([C@@H]1CCN(c2cc3c(cc2F)c(=O)c(C(=O)O)cn3C2CC2)C1)N(C)C [Example 73] | Esch. coli Vogel | 4 |
| CCN[C@@H](C)[C@@H]1CCN(c2c(F)c(N)c3c(=O)c(C(=O)O)cn(C4CC4)c3c2F)C1 [Example 53] | Esch. coli Vogel | 0.8 |
| C[C@@H](N)[C@H]1CCN(c2nc3c(cc2F)c(=O)c(C(=O)O)cn3C2CC2)C1 [Example 5] | Esch. coli Vogel | 1 |
| C[C@H](N)[C@@H]1CCN(c2cc3c(cc2F)c(=O)c(C(=O)O)cn3C2CC2)C1 [Example 3] | Esch. coli Vogel | 0.9 |
| C[C@@H](N)[C@@H]1CCN(c2cc3c(cc2F)c(=O)c(C(=O)O)cn3C2CC2)C1 [Example 4] | Esch. coli Vogel | 2 |
| CN[C@@H](C)[C@@H]1CCN(c2nc3c(cc2F)c(=O)c(C(=O)O)cn3-c2ccc(F)cc2F)C1 [Example 64, monohydrochloride] | Esch. coli Vogel | 2 |
| C[C@H](N)[C@H]1CCN(c2nc3c(cc2F)c(=O)c(C(=O)O)cn3C2CC2)C1 [Example 6] | Esch. coli Vogel | 1 |
| CCN[C@H](C)[C@H]1CCN(c2nc3c(cc2F)c(=O)c(C(=O)O)cn3C2CC2)C1 [Example 79] | Esch. coli Vogel | 1 |
| CCN[C@@H](C)[C@@H]1CCN(c2c(F)cc3c(=O)c(C(=O)O)cn(C4CC4)c3c2OC)C1 [Example 18] | Esch. coli Vogel | 2 |
| C[C@H](N)[C@@H]1CCN(c2nc3c(cc2F)c(=O)c(C(=O)O)cn3C2CC2)C1 [Example 7] | Esch. coli Vogel | 0.4 |
| C[C@H]([C@@H]1CCN(c2nc3c(cc2F)c(=O)c(C(=O)O)cn3C2CC2)C1)N(C)C [Example 72] | Esch. coli Vogel | 1 |
| CN[C@H](C)[C@@H]1CCN(c2c(F)c(N)c3c(=O)c(C(=O)O)cn(C4CC4)c3c2F)C1 [Example 41] | Esch. coli Vogel | 2 |
| CN[C@H](C)[C@@H]1CCN(c2nc3c(cc2F)c(=O)c(C(=O)O)cn3C2CC2)C1 [Example 22] | Esch. coli Vogel | 1.2 |
| CN[C@@H](C)[C@@H]1CCN(c2c(F)cc3c(=O)c(C(=O)O)cn(C4CC4)c3c2OC)C1 [Example 36] | Esch. coli Vogel | 1 |
| CN[C@@H](C)[C@@H]1CCN(c2nc3c(cc2F)c(=O)c(C(=O)O)cn3C2CC2)C1 [Example 21] | Esch. coli Vogel | 0.5 |
| C[C@H](N)[C@H]1CCN(c2cc3c(cc2F)c(=O)c(C(=O)O)cn3C2CC2)C1 [Example 2] | Esch. coli Vogel | 4 |

###

Counter-ions that a name gives are not always drawn.
Strep. faecalis MGH-2 measurements of MIC, listed per entry.

| compound | MIC, µg/mL |
| --- | --- |
| Cc1c(F)c(N2CC[C@@H]([C@H](C)N)C2)cc2c1c(=O)c(C(=O)O)cn2C1CC1 [Example 47] | 0.025 |
| C[C@@H](N)[C@H]1CCN(c2nc3c(cc2F)c(=O)c(C(=O)O)cn3C2CC2)C1 [Example 5] | 0.1 |
| CN[C@@H](C)[C@@H]1CCN(c2c(F)c(N)c3c(=O)c(C(=O)O)cn(C4CC4)c3c2OC)C1 [Example 56] | 0.025 |
| CN[C@H](C)[C@H]1CCN(c2nc3c(cc2F)c(=O)c(C(=O)O)cn3C2CC2)C1 [Example 23] | 0.2 |
| C[C@@H]([C@@H]1CCN(c2cc3c(cc2F)c(=O)c(C(=O)O)cn3C2CC2)C1)N(C)C [Example 73] | 0.1 |
| CCN[C@H](C)[C@@H]1CCN(c2c(F)cc3c(=O)c(C(=O)O)cn(C4CC4)c3c2OC)C1 [Example 17] | 0.013 |
| CCN[C@H](C)[C@H]1CCN(c2nc3c(cc2F)c(=O)c(C(=O)O)cn3C2CC2)C1 [Example 79] | 0.05 |
| CN[C@@H](C)[C@@H]1CCN(c2cc3c(c(C)c2F)c(=O)c(C(=O)O)cn3C2CC2)C1 [Example 67, monohydrochloride] | 0.1 |
| CCN[C@@H](C)[C@@H]1CCN(c2cc3c(c(C)c2F)c(=O)c(C(=O)O)cn3C2CC2)C1 [Example 52] | 0.05 |
| CCN[C@@H](C)[C@H]1CCN(c2nc3c(cc2F)c(=O)c(C(=O)O)cn3C2CC2)C1 [Example 80] | 0.2 |
| C[C@H](N)[C@@H]1CCN(c2c(F)cc3c(=O)c(C(=O)O)cn(C4CC4)c3c2C(F)(F)F)C1 [Example 60] | 0.025 |
| CCN[C@H](C)[C@H]1CCN(c2c(F)cc3c(=O)c(C(=O)O)cn(C4CC4)c3c2OC)C1 [Example 19] | 0.1 |
| C[C@H](N)[C@@H]1CCN(c2nc3c(cc2F)c(=O)c(C(=O)O)cn3-c2ccc(F)cc2F)C1 [Example 43] | 0.025 |
| C[C@@H](N)[C@@H]1CCN(c2cc3c(cc2F)c(=O)c(C(=O)O)cn3C2CC2)C1 [Example 4] | 0.1 |
| C[C@H](N)[C@@H]1CCN(c2nc3c(cc2F)c(=O)c(C(=O)O)cn3C2CC2)C1 (relative stereo) [reference compound] | 0.05 |

###

System: Pseud. aeruginosa UI-18
measurement-notes: median protective dose in mice given lethal systemic infections, Pseud. aeruginosa UI-18
Assay type: in vivo
experimental-setup: Pseudomonas aeruginosa, UI18, SC, single dose at time of challenge, read-out: median protective dose (PD50)
Kindly apply the following: criterion met if ED50 is less than 10 mg/kg, criterion not met in every other case.

| chemical-structure | category |
| --- | --- |
| C[C@@H](N)[C@H]1CCN(c2nc3c(cc2F)c(=O)c(C(=O)O)cn3C2CC2)C1 | criterion not met |
| C[C@H](N)[C@@H]1CCN(c2nc3c(cc2F)c(=O)c(C(=O)O)cn3C2CC2)C1 | criterion met |
| C[C@H]([C@@H]1CCN(c2nc3c(cc2F)c(=O)c(C(=O)O)cn3C2CC2)C1)N(C)C | criterion not met |
| C[C@H](N)[C@H]1CCN(c2nc3c(cc2F)c(=O)c(C(=O)O)cn3C2CC2)C1 | criterion not met |
| C[C@@H](N)[C@@H]1CCN(c2nc3c(cc2F)c(=O)c(C(=O)O)cn3C2CC2)C1 | criterion not met |

###

This section lists MIC readings for Strep. faecalis MGH-2.
readout-label: MIC (µg/mL)

| chemical-structure | readout-label | value |
| --- | --- | --- |
| CCN[C@@H](C)[C@@H]1CCN(c2cc3c(c(C)c2F)c(=O)c(C(=O)O)cn3-c2ccc(F)cc2F)C1 | MIC | 0.1 |
| C[C@H](N)[C@H]1CCN(c2nc3c(cc2F)c(=O)c(C(=O)O)cn3C2CC2)C1 | MIC | 0.1 |
| C[C@@H](N)[C@H]1CCN(c2cc3c(cc2F)c(=O)c(C(=O)O)cn3C2CC2)C1 | MIC | 0.2 |
| CN[C@H](C)[C@H]1CCN(c2c(F)cc3c(=O)c(C(=O)O)cn(C4CC4)c3c2OC)C1 | MIC | 0.05 |

###

# Lookup of reported ED50 keyed by entry
System: Strep. pyogenes C-203
measurement-notes: median protective dose in mice given lethal systemic infections, Strep. pyogenes C-203
Format: in vivo
experimental-setup: Streptococcus pyogenes, C203, PO, single dose at time of challenge, read-out: median protective dose (PD50)
Where a name gives a salt, the structure may show the parent alone.
readout-label: ED50 (mg/kg)

| molecule | value |
| --- | --- |
| CN[C@H](C)[C@@H]1CCN(c2nc3c(cc2F)c(=O)c(C(=O)O)cn3C2CC2)C1 | 8 |
| CN[C@@H](C)[C@@H]1CCN(c2c(F)c(N)c3c(=O)c(C(=O)O)cn(C4CC4)c3c2F)C1 | 0.55 |
| Cc1c(F)c(N2CC[C@@H]([C@H](C)N)C2)cc2c1c(=O)c(C(=O)O)cn2-c1ccc(F)cc1F [Example 65, monohydrochloride] | 5 |
| C[C@@H]([C@@H]1CCN(c2cc3c(cc2F)c(=O)c(C(=O)O)cn3C2CC2)C1)N(C)C | 4 |

###

Test system: Staph. aureus UC-76
measurement-notes: in vitro antibacterial activity, microtitration dilution (MIC), Staph. aureus UC-76
Format: cell-based
experimental-setup: Staphylococcus aureus, UC76, read-out: minimum inhibiting concentration (MIC)
Structures can show the parent of a compound that is named as a salt.
Simple rule here: MIC less than 0.03 µg/mL is condition met, otherwise condition not met.

| molecule | category |
| --- | --- |
| C[C@H]([C@@H]1CCN(c2nc3c(cc2F)c(=O)c(C(=O)O)cn3C2CC2)C1)N(C)C [Example 72] | condition met |
| C[C@@H]([C@H]1CCN(c2nc3c(cc2F)c(=O)c(C(=O)O)cn3C2CC2)C1)N(C)C [Example 70] | condition not met |
| C[C@@H](N)[C@H]1CCN(c2cc3c(cc2F)c(=O)c(C(=O)O)cn3C2CC2)C1 [Example 1] | condition not met |
| C[C@@H](N)[C@@H]1CCN(c2nc3c(cc2F)c(=O)c(C(=O)O)cn3C2CC2)C1 [Example 8] | condition not met |
| C[C@H](N)[C@@H]1CCN(c2nc3c(cc2F)c(=O)c(C(=O)O)cn3-c2ccc(F)cc2F)C1 [Example 43] | condition met |
| C[C@@H](N)[C@@H]1CCN(c2nc3c(cc2F)c(=O)c(C(=O)O)cn3-c2ccc(F)cc2F)C1 [Example 48] | condition met |
| CN[C@@H](C)[C@@H]1CCN(c2cc3c(c(C)c2F)c(=O)c(C(=O)O)cn3C2CC2)C1 [Example 67, monohydrochloride] | condition met |
| CCN[C@H](C)[C@@H]1CCN(c2nc3c(cc2F)c(=O)c(C(=O)O)cn3-c2ccc(F)cc2F)C1 [Example 51] | condition not met |
| CCN[C@@H](C)[C@@H]1CCN(c2cc3c(c(C)c2F)c(=O)c(C(=O)O)cn3-c2ccc(F)cc2F)C1 [Example 54] | condition met |
| C[C@H](N)[C@H]1CCN(c2nc3c(cc2F)c(=O)c(C(=O)O)cn3C2CC2)C1 [Example 6] | condition met |
| CCN[C@H](C)[C@@H]1CCN(c2c(F)cc3c(=O)c(C(=O)O)cn(C4CC4)c3c2OC)C1 [Example 17] | condition met |
| CCN[C@H](C)[C@H]1CCN(c2nc3c(cc2F)c(=O)c(C(=O)O)cn3C2CC2)C1 [Example 79] | condition met |
| C[C@H](N)[C@@H]1CCN(c2cc3c(cc2F)c(=O)c(C(=O)O)cn3C2CC2)C1 [Example 3] | condition met |
| C[C@@H](N)[C@@H]1CCN(c2cc3c(cc2F)c(=O)c(C(=O)O)cn3C2CC2)C1 [Example 4] | condition not met |
| CN[C@H](C)[C@@H]1CCN(c2c(F)c(N)c3c(=O)c(C(=O)O)cn(C4CC4)c3c2F)C1 [Example 41] | condition met |
| CN[C@@H](C)[C@@H]1CCN(c2c(F)c(C)c3c(=O)c(C(=O)O)cn(C4CC4)c3c2OC)C1 [Example 61] | condition met |
| CN[C@H](C)[C@H]1CCN(c2c(F)cc3c(=O)c(C(=O)O)cn(C4CC4)c3c2OC)C1 [Example 38] | condition met |
